Entry source: patent US10745382B2

Assignment: determine reported pIC50 for the given molecules.
# Test System: PD-1/PD-L1 (Homo sapiens, UniProt Q9NZQ7)
# Construct: made in house; host or cells: HEK293T
# Sequence (Q9NZQ7 with tags, fused parts or gaps): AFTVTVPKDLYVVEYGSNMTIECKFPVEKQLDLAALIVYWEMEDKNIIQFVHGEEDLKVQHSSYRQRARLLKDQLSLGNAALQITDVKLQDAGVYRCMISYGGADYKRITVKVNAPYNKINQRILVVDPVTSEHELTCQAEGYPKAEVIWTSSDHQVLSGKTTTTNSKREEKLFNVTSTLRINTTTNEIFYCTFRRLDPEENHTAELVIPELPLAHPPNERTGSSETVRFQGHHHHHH
# Test: PD-1/PD-L1 Homogenous Time-Resolved Fluorescence (HTRF) binding assay
# Measurement Parameters: PD-L1-His 10 nM, PD-1-Ig 20 nM; value given as range class; read-out: Range or IC50
# Protocol: The ability of the compounds of formula (I) to bind to PD-L1 was investigated using a PD-1/PD-L1 Homogenous Time-Resolved Fluorescence (HTRF) binding assay. Homogenous Time-Resolved Fluorescence (HTRF) Binding Assay. All binding studies were performed in an HTRF assay buffer consisting of dPBS supplemented with 0.1% […] bovine serum albumin and 0.05% (v/v) Tween-20. […]
pIC50: −log10 of the molar value.

| Molecule | pIC50 |
| --- | --- |
| Cc1c(COc2cc(OCc3cncc(S(C)(=O)=O)c3)c(CNC(C)(CO)CO)cc2Cl)cccc1-c1cccc(OCCCN2CC[C@@H](O)C2)c1C | 8.00 to 9.68 |

Give measured pIC50 for every item shown.
1. Cc1c(CCCCN2CC[C@@H](O)C2)cccc1-c1cccc(COc2cc(OCc3cncc(C#N)c3)c(CN3C[C@H](O)C[C@H]3C(=O)O)cc2Cl)c1C
2. Cc1c(COc2cc(OCc3cncc(C#N)c3)c(CN(CCC(F)(F)F)C(CO)CO)cc2Cl)cccc1-c1cccc(OCCCN2CCC(O)(CO)CC2)c1Cl
3. Cc1c(COc2cc(OCc3cncc(C#N)c3)c(CN3CCCC[C@H]3C(=O)O)cc2Cl)cccc1-c1cccc(OCCCNCC(O)CO)c1C (some centres unmarked)
4. CCN(CC)C(=O)c1cccc(-c2cccc(COc3cc(OCc4cncc(C#N)c4)c(CN4C[C@@H](O)C[C@H]4C(=O)O)cc3Cl)c2C)c1C
5. Cc1c(COc2cc(OCc3cncc(C#N)c3)c(CN(C)CC(C)(C)O)cc2Cl)cccc1-c1cccc(OCCCN2CC[C@@H](O)C2)c1Cl

1: 8.00 to 9.68; 2: 8.00 to 9.68; 3: 8.00 to 9.68; 4: 7.00 to 8.00; 5: 8.00 to 9.68
